Hello, the source for this data is ChEMBL document CHEMBL3044557, in case you need it.

- Test system: Scenedesmus acutus
- testName: Phytotoxicity against Scenedesmus acutus in light condition assessed as reduction of chlorophyll content after 16 hr (reference value: 20.25 ug/ml)
- Type: functional
A collection of compounds and their measured Activity
readoutName: Activity (µg/mL)

querySmiles: CCNc1nc(C)nc(NCC)n1
system: Scenedesmus acutus
result: 19.09
--
querySmiles: CCNc1nc(NCC)nc(SC)n1
system: Scenedesmus acutus
result: 17.74
--
querySmiles: CN(C)C(=O)Nc1ccc(Cl)c(Cl)c1
system: Scenedesmus acutus
result: 17.66
--
querySmiles: CCNc1nc(NCC)nc(C(Cl)(Cl)Cl)n1
system: Scenedesmus acutus
result: 19.23
--
querySmiles: CCNc1nc(NCC)nc(-c2ccccc2)n1
system: Scenedesmus acutus
result: 19.08
--
querySmiles: CCNc1nc(NCC)nc(C(F)(F)F)n1
system: Scenedesmus acutus
result: 16.7
--
querySmiles: CCNc1nc(Cl)nc(NCC)n1
system: Scenedesmus acutus
result: 16.86
